Molecular target: Human PPARα LBD fusion protein (Homo sapiens, UniProt Q07869)
Construct: a.a; 167-468)
Sequence (Q07869 167-468): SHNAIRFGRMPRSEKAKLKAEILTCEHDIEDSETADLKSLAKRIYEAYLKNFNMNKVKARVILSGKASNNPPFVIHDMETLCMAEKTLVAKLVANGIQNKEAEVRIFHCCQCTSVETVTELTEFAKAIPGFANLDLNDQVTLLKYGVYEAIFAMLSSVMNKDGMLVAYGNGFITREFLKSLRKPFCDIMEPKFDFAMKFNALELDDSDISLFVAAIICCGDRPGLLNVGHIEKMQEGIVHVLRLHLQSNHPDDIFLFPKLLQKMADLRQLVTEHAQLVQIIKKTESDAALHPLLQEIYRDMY
Assay: Transcription activation potential, GAL4 luciferase reporter in C3A cells
Format: cell-based
Settings: 1 μM
readout_type: transcription activation potential (luciferase) ± standard deviation (LCPS)
Report the figure in LCPS without appending any unit label.

INSERT INTO measurements (compound, study_system, endpoint_result) VALUES
  ('Cc1cccc(C)c1COc1cccc(CC(=O)O)c1', 'Human PPARα LBD fusion protein (Homo sapiens, UniProt Q07869)', 37),
  ('Cc1cccc(C)c1COc1cccc(C(=O)CCC(=O)O)c1', 'Human PPARα LBD fusion protein (Homo sapiens, UniProt Q07869)', 127.7),
  ('Cc1cccc(C)c1COc1cccc(C(=O)O)c1', 'Human PPARα LBD fusion protein (Homo sapiens, UniProt Q07869)', 10.9);

// query transcription activation potential (luciferase) ± standard deviation value for entry Cc1cccc(C)c1COc1cccc(CCCC(=O)O)c1
14.7

Consider next the compound Cc1cccc(Nc2cc(Cl)nc(SCC(=O)O)n2)c1C [Wy, reference compound] in the same way.
181.8

====

Target: Mouse PPARα LBD fusion protein (Mus musculus, UniProt P23204)
Sequence (P23204 239-466): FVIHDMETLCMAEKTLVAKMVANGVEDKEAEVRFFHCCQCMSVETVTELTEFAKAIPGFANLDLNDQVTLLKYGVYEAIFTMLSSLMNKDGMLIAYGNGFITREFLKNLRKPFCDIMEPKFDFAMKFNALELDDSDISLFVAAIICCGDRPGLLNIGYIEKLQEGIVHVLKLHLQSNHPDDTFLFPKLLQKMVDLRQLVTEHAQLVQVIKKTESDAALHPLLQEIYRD
Experiment: Transcription activation potential, GAL4 luciferase reporter in C3A cells
Format: cell-based
Conditions: 30 μM, Table 20a
Experimental: Cells were seeded in 24 well plates the day prior to transfection at 5×10^4−2×10^5 cells/well, depending upon cell type. Cells were transfected using Lipofectamine 2000 reagent from Invitrogen. […] Approximately 10 μL of lysate was added to 100 μL of firefly luciferase substrate, mixed by pipetting, and analyzed on a luminometer for 10 s using the integration function (relative luciferase units/RLU) or on a Microbeta Trilux (luciferase counts per second/LCPS). […]
readout_type: transcription activation potential (luciferase) ± standard deviation
Kindly write the number and append the unit.

Guide cases for transcription activation potential (luciferase) ± standard deviation, answers given:
INSERT INTO measurements (molecule, endpoint_result) VALUES
  ('Cc1cccc(C)c1COc1cccc(C(=O)CCC(=O)O)c1', '10.43 ± 1.81 LCPS'),
  ('Cc1cccc(C)c1COc1cccc(CC(=O)O)c1', '358.6 ± 5.23 LCPS'),
  ('Cc1cccc(C)c1COc1cccc(CCCC(=O)O)c1', '7.4 ± 0.23 LCPS'),
  ('Cc1cccc(C)c1COc1cccc(C(=O)O)c1', '11.63 ± 5.01 LCPS');

// query transcription activation potential (luciferase) ± standard deviation value for entry Cc1cccc(Nc2cc(Cl)nc(SCC(=O)O)n2)c1C [Wy, reference compound]
414 ± 122.52 LCPS

====

Molecular target: Mouse PPARγ LBD fusion protein (Mus musculus, UniProt P37238)
Assay: Transcription activation potential, GAL4 luciferase reporter in C3A cells
Type: cell-based
Conditions: 30 μM test compound, Table 20b
The following compounds are shown together with reported transcription activation potential (luciferase) ± standard deviation values.

Guide cases for transcription activation potential (luciferase) ± standard deviation, answers given:
INSERT INTO measurements (mol_smiles, study_system, endpoint_result) VALUES
  ('Cc1cccc(C)c1COc1cccc(C(=O)O)c1', 'Mouse PPARγ LBD fusion protein (Mus musculus, UniProt P37238)', '55.4 ± 30.6 LCPS'),
  ('Cc1cccc(C)c1COc1cccc(CC(=O)O)c1', 'Mouse PPARγ LBD fusion protein (Mus musculus, UniProt P37238)', '88.2 ± 33.2 LCPS'),
  ('Cc1cccc(C)c1COc1cccc(CCCC(=O)O)c1', 'Mouse PPARγ LBD fusion protein (Mus musculus, UniProt P37238)', '9.6 ± 5.46 LCPS');

// query transcription activation potential (luciferase) ± standard deviation value for entry Cc1cccc(C)c1COc1cccc(C(=O)CCC(=O)O)c1
4.9 ± 4.42 LCPS

====

Target: Mouse PPARγ LBD fusion protein (Mus musculus, UniProt P37238)
Sequence (P37238 238-503): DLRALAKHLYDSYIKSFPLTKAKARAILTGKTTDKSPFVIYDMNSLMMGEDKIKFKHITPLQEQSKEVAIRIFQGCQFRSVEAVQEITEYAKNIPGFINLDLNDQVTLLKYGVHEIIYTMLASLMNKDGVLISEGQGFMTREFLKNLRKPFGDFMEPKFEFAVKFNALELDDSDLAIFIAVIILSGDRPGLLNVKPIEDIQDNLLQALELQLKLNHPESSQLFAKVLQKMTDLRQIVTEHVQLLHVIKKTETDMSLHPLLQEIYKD
Experiment: Transcription activation potential, GAL4 luciferase reporter in C3A cells
Format: cell-based
Details: 1 μM test compound, Table 20b
readout_type: transcription activation potential (luciferase) ± standard deviation (LCPS)
Report the figure in LCPS without appending any unit label.

Guide cases for transcription activation potential (luciferase) ± standard deviation, answers given:
INSERT INTO results (mol_smiles, study_system, endpoint_result) VALUES
  ('Cc1cccc(C)c1COc1cccc(CCCC(=O)O)c1', 'Mouse PPARγ LBD fusion protein (Mus musculus, UniProt P37238)', 14.3),
  ('Cc1cccc(C)c1COc1cccc(CC(=O)O)c1', 'Mouse PPARγ LBD fusion protein (Mus musculus, UniProt P37238)', 0.33),
  ('Cc1cccc(C)c1COc1cccc(C(=O)CCC(=O)O)c1', 'Mouse PPARγ LBD fusion protein (Mus musculus, UniProt P37238)', 2.4);

// below: transcription activation potential (luciferase) ± standard deviation requested for another compound
// query transcription activation potential (luciferase) ± standard deviation value for entry Cc1cccc(C)c1COc1cccc(C(=O)O)c1
8.47

====

Target: Human PPARα LBD fusion protein (Homo sapiens, UniProt Q07869)
Construct: a.a; 167-468)
Experiment: Transcription activation potential, GAL4 luciferase reporter in C3A cells
Type: cell-based
Conditions: 3 μM
Threshold check on transcription activation potential (luciferase) ± standard deviation: at or above 100 LCPS gives Criterion met, strictly below gives Criterion not met.

Solved cases below.
INSERT INTO measurements (molecule, class_name) VALUES
  ('Cc1cccc(Nc2cc(Cl)nc(SCC(=O)O)n2)c1C [Wy, reference compound]', 'Criterion met'),
  ('Cc1cccc(C)c1COc1cccc(CC(=O)O)c1 [Compound CF]', 'Criterion not met'),
  ('Cc1cccc(C)c1COc1cccc(C(=O)O)c1 [Compound CG, 3-(2,6-Dimethylbenzyloxy)benzoic acid]', 'Criterion not met'),
  ('Cc1cccc(C)c1COc1cccc(CCCC(=O)O)c1 [CE]', 'Criterion not met');

With those in mind, consider the next molecule.
Evaluate Cc1cccc(C)c1COc1cccc(C(=O)CCC(=O)O)c1 [Compound BI] : transcription activation potential (luciferase) ± standard deviation at minimum 100 LCPS?
Criterion met

====

Tested on: male ob/ob mouse model of Type II diabetes
Assay: Antidiabetic effects in ob/ob mice (serum chemistry after 2 weeks daily oral dosing)
Type: in vivo
Design: key: serum glucose in mg/dl
Settings: 60 mg/kg, Table 15
readout_type: Glucose ± SEM
I'd appreciate a reply containing only the number, no unit.

Guide cases for Glucose ± SEM, answers given:
INSERT INTO assay_data (molecule, study_system, readout_type, endpoint_result) VALUES
  ('COC(=O)CC(=O)c1cccc(OCc2c(C)cccc2C)c1 [CB]', 'male ob/ob mouse model of Type II diabetes', 'Glucose ± SEM', 494.4),
  ('Cc1cccc(C)c1COc1cccc(C(C=O)CC(N)=O)c1 (stereo not shown) [CC]', 'male ob/ob mouse model of Type II diabetes', 'Glucose ± SEM', 444.4),
  ('Cc1cccc(C)c1COc1ccccc1 [CA, (2,6-Dimethylbenzyloxy)benzene]', 'male ob/ob mouse model of Type II diabetes', 'Glucose ± SEM', 402.6);

// below: Glucose ± SEM requested for another molecule
// query Glucose ± SEM value for entry Cc1cccc(C)c1COc1cccc(C(=O)CCCC(=O)O)c1 [CD]
505.6

====

System: Human PPARγ LBD fusion protein
Assay: Transcription activation potential, GAL4 luciferase reporter in C3A cells
Assay type: cell-based
Details: 30 μM test compound
The following molecules are shown together with reported transcription activation potential (luciferase) ± standard deviation values.

Guide cases for transcription activation potential (luciferase) ± standard deviation, answers given:
INSERT INTO measurements (mol_smiles, endpoint_result) VALUES
  ('Cc1cccc(C)c1COc1cccc(CC(=O)O)c1', '230.4 ± 97.2 LCPS'),
  ('Cc1cccc(C)c1COc1cccc(C(=O)O)c1', '205.6 ± 37.1 LCPS'),
  ('Cc1cccc(C)c1COc1cccc(CCCC(=O)O)c1', '28.5 ± 16.4 LCPS');

// below: transcription activation potential (luciferase) ± standard deviation requested for another molecule
// query transcription activation potential (luciferase) ± standard deviation value for entry Cc1cccc(C)c1COc1cccc(C(=O)CCC(=O)O)c1
22.9 ± 10.3 LCPS

From: patent US7932290B2
